- measurementDescription: yeast display, Sf9 membrane polyspecificity reagent, FACS + sequencing; frameworks hold sequencing errors
recordedMetric: polyreactivity (PSR sort gate)

inputSequence	recordedMetric	experimentalResult
QFQLVESGGGLVQAGGSLRLSCAASGRTFQLNAMGWYRQAPGKERELVAAISTRGGSTNYADSVKGRFTISRDNAKNTVYLQMNRLKPEDTAVYYCAKDPSFTRGFKEGGGYDYWGQGSQVTVSS	polyreactivity (PSR sort gate)	high polyreactivity
QVQLVESGGGLVQAGGSLRLSCAASGFTFVGYAMGWYRQEPGKERELVAAISTRGGSTYYADSVKGRFTISRDNAKNTDYLQMNSLKPEDTAVYYCNARGAKRGLLSYYWGQGTQVTVSS	polyreactivity (PSR sort gate)	high polyreactivity

---

- measurementDescription: yeast display, Sf9 membrane polyspecificity reagent, FACS + sequencing; frameworks hold sequencing errors

inputSequence	polyreactivity (PSR sort gate)
QVQLVESGGGLVQAGGSLRLSCAASGSTLIWNVMGWYRQAPGKERELVATISSGGRTYYADSVKGRFTISRDNAKNTVYLQMNSLKPEDTAVYYCAARSRRGVSYRSYRSFDYWGQGTQVTVSS	high polyreactivity
QVQLVESGGGLVQAGGSLRLSCAASGLIFTPYPMGWYRQAPGKERELVAAISVSGGRTYYADSVKGRITISRDNEKNTVYLQMNSLKPEDTAVYYCAASDRYGGRDYWGQGTQVTVSS	high polyreactivity
QVQLVESGGGLVQAGGSLRLSCAASGRIFVPYVMGWYRQAPGKERELVAAISSSGGSTYYADSVKGRFTISRDNAKNTVYLQMNSLKQEDTAVYYCAKPYYFHEEDHWGQGSQVTVSS	low polyreactivity
QVQLQESGGGLVQAGGSLRLSCEASGYISLAQTIGWYRQAPGKEREFVASIALGSSTYYTDSVKGSFTISRDKEKTTVYLQMNSLKPAETGVYYCAARVGASYAHDYWGQGTQVTVSS	low polyreactivity
QVQLVESGGGLVQAGGSLRLSCAASGSIFAPYDMGWYRQAPGKERELVAAIDWGGDSTYYADSVKGRFTISRDNAKNTVYLQMNSLKPEDTAVYYCAADDLWLSYRTEYDYYYWGQGTQVTVSS	low polyreactivity
QVQLVESGGGLVQAGGSLRLSCAASGLTFVYYTMGWYRQAPGKERELVAGINSGGSTYYADSVKGRFTISRDNAKNTVFLQMNSLKPEDTAVYYCAAVQRGYRRFRRIYDYWGQGTQVTVSS	high polyreactivity
QVQLVESGGGLVQAGGSLRLSCAASGITFRLYAMGWYRQAPGKEREFVAAISRRGGSTYYADSVKGRFTISRDNAKNTVYLQMNSLKPEDTAVYYCARYGLVYALGYWGQGTQVTVSS	high polyreactivity
QVQLVESGGGLVQAGGSLRLSCAASGRTLTFYAMGWYRQAPGTERELVAAITWRAGSTYYADSVKGRFTISRDNAKNTVYLQMNSMKPEDTAVYYCAREPYSASHVYGLYRGYDYWGQGTQVTVSS	low polyreactivity
QVQLVESGGGLVQAGGSLRLSCAASGSTFKVNVMGCYRKAPVKERELVAAINQSVRGTYYADSVKGRFTISRDNAKNTVYLQMNSLKPEDTAVYYCAAKIIVLRYVLSQEQRRYNYWGQGTQVTVSS	low polyreactivity
QVQLVESGGGLVQAGGSLRLSCAASGFNFEVNAMGWYRQAPGKERELVAAITTDGSTNYADSVNGRFSSSRDNAKNTVYIQMTSLKPEDTAVYYCAARVQHYLGTDDYWGQGTQVTVSS	low polyreactivity
QVQLVESGGGLVQAGGSLRLSCAASGRIFSHYAMGWYRQAPGKERELVAAINRSGGSTYYADSVKGRFTISRDNAKNTVYLQMNSLKPEDTAVYYCAADVKYGYDWGQGTQVTVSS	high polyreactivity
QVQLVESGGGLVQAGGSLRLSCAASGFTFSWYAMGWYRQAPGKERELVAAISRRGGSTYYADSVKGRFTISRDIAKNTVYLQMNSLKPEDTAVYYCNAALTYDYNYWGQGTQVTVSS	high polyreactivity
QVQLVESVGGLVQAGGSLRLSCAASGSTFYIYAMRWYRQAPGKERELVARISGSGGSTYYADSVKGRFTISRDNAKNTVYLQMNSLKPEDTAVYYCAADAIYKYYQYYAFPYYRYDYWGLGTQVTVSS	low polyreactivity
QVQLVESGGGLVQAGGSLRLSCAASGSIFRYYAMGWYRQAPGKERELVAAISQSGTSTYYADSVKGRFTISRDNAKNTVYLQMNSLKPEDTAVYYCAAYPYYDRDYWGQGTQVTVSS	low polyreactivity
QVQLVESGGGLVQAGGSLRLSCAASGFIFPAYVMGWYRQAPGKERELVAAISRRGGSTYYADSVKGRFTISRDNAKNTVYLQMNRLKPEDTSVYYCAAVFKAGSAYDYWGQGTQVTVSS	high polyreactivity
QVQLVDSGGGLVQAGGSHRLSCAASGIIFPTYDMGWYRPAPGKERELVAAITWSTGSTTYADSVKGRFTISRDNAKNTVYLQMNSLKPEDTAVYYCNKDSEGSGGEFDDWGQGTQVTVSS	low polyreactivity
QVQLVESGGGLVQAGGSLRLSCAASGSIFSSYAMGWYRQAPGKERELVAAITRTGGRTYYADSVKGRFTISRDNAKNTVYLQMNSLKPEDTAVYYCAAKQVSRGVAAYDYWGQGTQVTVSS	high polyreactivity
QDQLVESGGGLVQAGGSLRITCAASGSIFSWYTMGRYRQAPGKEMELVAAISGCGSRTYYADSVKGRFTISRDIEKNTVYLQMNSLKPEDTALYYCNTVNTWSVYYAYDYWGQGTQVTVSS	high polyreactivity
QVQLVESGGGLVQAGGSLRLSCAASGRIFYYNVMGWYRQAPGKEREFVAAISTRTGSTYYADSVKGRFTISRDNAKNTVYLQMNSLKPEDTAVYYCAAPYRAYSYDYWGQGTQVTVSS	high polyreactivity
QVQLVESGGGLVQAGGSLRLSCAASGRTFQSNARGRARQAPGKETELVATISSDGSTYYADSVKGRFTISRDNAKNTVYLQMNSLKPEDTAVYYCAADSHPASTIGVRLDSWGQGTQVTVSS	low polyreactivity
QVQLVESGGGLVQAGGSLSLSCAASGLTFYNYAMGWYRQAPGTERELVAAISRSGRTYYADSVKGRFTISRDNAKNTVDLQMNSLKPEDTAVYYCAAGHGGDPGSGYWGQGTEVTVSS	high polyreactivity
